System: 377384-186-R-J1-PDC complex spheroid viability
Experiment: Anticancer human tumor 377384-186-R-J1-PDC patient-derived pancreatic carcinoma cell line growth inhibition [RAS]
Conditions: second compound 0.003 µM; first compound 0.1 µM; hits give low values
endpoint: viability, T/C (%)

- molecule: "CC(Nc1ccc2c(c1)OCCn1cc(N3C(=O)OCC3C(F)F)nc1-2)C(N)=O (centres undefined) + CCn1c(-c2cc(N3CCN(C)CC3)cnc2C(C)OC)c2c3cc(ccc31)-c1csc(n1)CC(NC(=O)C1CC1C)C(=O)N1CCCC(N1)C(=O)OCC(C)(C)C2"
  system-tested: "377384-186-R-J1-PDC complex spheroid viability"
  endpoint: "viability, T/C"
  result-value: 13.9
- molecule: "Nc1ccn(C2OC(CO)C(O)C2(F)F)c(=O)n1 (centres undefined) + CCn1c(-c2cccnc2C(C)OC)c2c3cc(ccc31)N1CCOC(CC(NC(=O)C(C(C)C)N(C)C(=O)C3(F)CCN(C(=O)C#CC(C)(C)N(C)C)CC3)C(=O)N3CCCC(N3)C(=O)OCC(C)(C)C2)C1"
  system-tested: "377384-186-R-J1-PDC complex spheroid viability"
  endpoint: "viability, T/C"
  result-value: 9.1
- molecule: "CC(C)n1nc(-c2ccc3oc(N)nc3c2)c2c(N)ncnc21 + CCn1c(-c2cc(N3CCN(C)CC3)cnc2C(C)OC)c2c3cc(ccc31)-c1csc(n1)CC(NC(=O)C1CC1C)C(=O)N1CCCC(N1)C(=O)OCC(C)(C)C2"
  system-tested: "377384-186-R-J1-PDC complex spheroid viability"
  endpoint: "viability, T/C"
  result-value: 4.84
- molecule: "NC1c2ccccc2OC12CCN(c1cnc3c(N4CCCc5ncccc54)n[nH]c3n1)CC2 (centres undefined) + CCn1c(-c2cc(N3CCN(C)CC3)cnc2C(C)OC)c2c3cc(ccc31)-c1csc(n1)CC(NC(=O)C1CC1C)C(=O)N1CCCC(N1)C(=O)OCC(C)(C)C2"
  system-tested: "377384-186-R-J1-PDC complex spheroid viability"
  endpoint: "viability, T/C"
  result-value: 1.37
- molecule: "Cc1nc(N2CCC3(CC2)COC(C)C3N)c(CO)nc1Sc1ccnc(N)c1Cl (centres undefined) + CCn1c(-c2cc(N3CCN(C)CC3)cnc2C(C)OC)c2c3cc(ccc31)-c1csc(n1)CC(NC(=O)C1CC1C)C(=O)N1CCCC(N1)C(=O)OCC(C)(C)C2"
  system-tested: "377384-186-R-J1-PDC complex spheroid viability"
  endpoint: "viability, T/C"
  result-value: 3.1
- molecule: "CCN1CCN(Cc2ccc(Nc3ncc(F)c(-c4cc(F)c5nc(C)n(C(C)C)c5c4)n3)nc2)CC1 + CCn1c(-c2cc(N3CCN(C)CC3)cnc2C(C)OC)c2c3cc(ccc31)-c1csc(n1)CC(NC(=O)C1CC1C)C(=O)N1CCCC(N1)C(=O)OCC(C)(C)C2"
  system-tested: "377384-186-R-J1-PDC complex spheroid viability"
  endpoint: "viability, T/C"
  result-value: 10.2
- molecule: "Nc1ccn(C2OC(CO)C(O)C2(F)F)c(=O)n1 (centres undefined) + CCn1c(-c2cc(N3CCN(C)CC3)cnc2C(C)OC)c2c3cc(ccc31)-c1csc(n1)CC(NC(=O)C1CC1C)C(=O)N1CCCC(N1)C(=O)OCC(C)(C)C2"
  system-tested: "377384-186-R-J1-PDC complex spheroid viability"
  endpoint: "viability, T/C"
  result-value: 2.62
- molecule: "CC(C)NCC(C(=O)N1CCN(c2ncnc3c2C(C)CC3O)CC1)c1ccc(Cl)cc1 (centres undefined) + CCn1c(-c2cc(N3CCN(C)CC3)cnc2C(C)OC)c2c3cc(ccc31)-c1csc(n1)CC(NC(=O)C1CC1C)C(=O)N1CCCC(N1)C(=O)OCC(C)(C)C2"
  system-tested: "377384-186-R-J1-PDC complex spheroid viability"
  endpoint: "viability, T/C"
  result-value: 21.2
- molecule: "C=CC(=O)Nc1cc(Nc2nccc(-c3cn(C)c4ccccc34)n2)c(OC)cc1N(C)CCN(C)C + CCn1c(-c2cc(N3CCN(C)CC3)cnc2C(C)OC)c2c3cc(ccc31)-c1csc(n1)CC(NC(=O)C1CC1C)C(=O)N1CCCC(N1)C(=O)OCC(C)(C)C2"
  system-tested: "377384-186-R-J1-PDC complex spheroid viability"
  endpoint: "viability, T/C"
  result-value: 4.88

====

Parameter viability, T/C: see the listing below.
Tested on: 377384-186-R-J1-PDC complex spheroid viability
Assay: Anticancer human tumor 377384-186-R-J1-PDC cell line growth inhibition [RAS];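 further: spheroids exposed to compounds for seven days before readout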
Details: second compound 0.000949 µM; first compound 0.00949 µM; hits give low values

- compound: "CC1(C)CCC(Nc2ncc(C(F)(F)F)c(-c3c[nH]c4c(P(C)(C)=O)c(C#N)ccc34)n2)CN1 (centres undefined) + CCn1c(-c2cccnc2C(C)OC)c2c3cc(ccc31)N1CCOC(CC(NC(=O)C(C(C)C)N(C)C(=O)C3(F)CCN(C(=O)C#CC(C)(C)N(C)C)CC3)C(=O)N3CCCC(N3)C(=O)OCC(C)(C)C2)C1"
  system-tested: "377384-186-R-J1-PDC complex spheroid viability"
  viability, T/C: "36.1%"
- compound: "CC1(C)CCC(Nc2ncc(C(F)(F)F)c(-c3c[nH]c4c(P(C)(C)=O)c(C#N)ccc34)n2)CN1 (centres undefined) + CCn1c(-c2cc(N3CCN(C)CC3)cnc2C(C)OC)c2c3cc(ccc31)-c1csc(n1)CC(NC(=O)C1CC1C)C(=O)N1CCCC(N1)C(=O)OCC(C)(C)C2"
  system-tested: "377384-186-R-J1-PDC complex spheroid viability"
  viability, T/C: "22.9%"
- compound: "CCc1c2c(nc3ccc(O)cc13)-c1cc3c(c(=O)n1C2)COC(=O)[C@]3(O)CC + CCn1c(-c2cc(N3CCN(C)CC3)cnc2C(C)OC)c2c3cc(ccc31)-c1csc(n1)CC(NC(=O)C1CC1C)C(=O)N1CCCC(N1)C(=O)OCC(C)(C)C2"
  system-tested: "377384-186-R-J1-PDC complex spheroid viability"
  viability, T/C: "10.2%"
- compound: "CCc1c2c(nc3ccc(O)cc13)-c1cc3c(c(=O)n1C2)COC(=O)[C@]3(O)CC + CCn1c(-c2cccnc2C(C)OC)c2c3cc(ccc31)N1CCOC(CC(NC(=O)C(C(C)C)N(C)C(=O)C3(F)CCN(C(=O)C#CC(C)(C)N(C)C)CC3)C(=O)N3CCCC(N3)C(=O)OCC(C)(C)C2)C1"
  system-tested: "377384-186-R-J1-PDC complex spheroid viability"
  viability, T/C: "18.3%"

====

// reported viability, T/C per item
System: 377384-186-R-J1-PDC complex spheroid viability
Experiment: Anticancer human tumor 377384-186-R-J1-PDC cell line growth inhibition [RAS];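 further: spheroids exposed to compounds for seven days before readout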
Conditions: second compound 0.00949 µM; first compound 0.003 µM; hits give low values

- compound: "CCc1c2c(nc3ccc(O)cc13)-c1cc3c(c(=O)n1C2)COC(=O)[C@]3(O)CC + CCn1c(-c2cc(N3CCN(C)CC3)cnc2C(C)OC)c2c3cc(ccc31)-c1csc(n1)CC(NC(=O)C1CC1C)C(=O)N1CCCC(N1)C(=O)OCC(C)(C)C2"
  system-tested: "377384-186-R-J1-PDC complex spheroid viability"
  viability, T/C / %: 3.24
- compound: "CCc1c2c(nc3ccc(O)cc13)-c1cc3c(c(=O)n1C2)COC(=O)[C@]3(O)CC + CCn1c(-c2cccnc2C(C)OC)c2c3cc(ccc31)N1CCOC(CC(NC(=O)C(C(C)C)N(C)C(=O)C3(F)CCN(C(=O)C#CC(C)(C)N(C)C)CC3)C(=O)N3CCCC(N3)C(=O)OCC(C)(C)C2)C1"
  system-tested: "377384-186-R-J1-PDC complex spheroid viability"
  viability, T/C / %: 35.7
- compound: "CC1(C)CCC(Nc2ncc(C(F)(F)F)c(-c3c[nH]c4c(P(C)(C)=O)c(C#N)ccc34)n2)CN1 (centres undefined) + CCn1c(-c2cc(N3CCN(C)CC3)cnc2C(C)OC)c2c3cc(ccc31)-c1csc(n1)CC(NC(=O)C1CC1C)C(=O)N1CCCC(N1)C(=O)OCC(C)(C)C2"
  system-tested: "377384-186-R-J1-PDC complex spheroid viability"
  viability, T/C / %: 5.75
- compound: "CC1(C)CCC(Nc2ncc(C(F)(F)F)c(-c3c[nH]c4c(P(C)(C)=O)c(C#N)ccc34)n2)CN1 (centres undefined) + CCn1c(-c2cccnc2C(C)OC)c2c3cc(ccc31)N1CCOC(CC(NC(=O)C(C(C)C)N(C)C(=O)C3(F)CCN(C(=O)C#CC(C)(C)N(C)C)CC3)C(=O)N3CCCC(N3)C(=O)OCC(C)(C)C2)C1"
  system-tested: "377384-186-R-J1-PDC complex spheroid viability"
  viability, T/C / %: 71.8
